The measurements presented in this section are drawn from ChEMBL document CHEMBL2069268.

Overview of reported ED50 across a group of compounds:
# System: Mus musculus
# assay.comment: Antinociceptive effect in intrathecally dosed ICR-CD1 mouse by tail flick test
# Type: functional
Report the figure in pmol without appending any unit label.

O=C(N[C@@H]1CC[C@@]2(O)[C@H]3Cc4ccc(O)c5c4[C@@]2(CCN3CC2CC2)[C@H]1O5)c1nccc2ccccc12    1408

// sample O=C(N[C@@H]1CC[C@@]2(O)[C@H]3Cc4ccc(O)c5c4[C@@]2(CCN3CC2CC2)[C@H]1O5)c1cnc2ccccc2n1 , its ED50 was 50.8

// sample Cl.O=C(N[C@@H]1CC[C@@]2(O)[C@H]3Cc4ccc(O)c5c4[C@@]2(CCN3CC2CC2)[C@H]1O5)c1ccc2ccccc2c1 , its ED50 was 18.7

// sample O=C(N[C@@H]1CC[C@@]2(O)[C@H]3Cc4ccc(O)c5c4[C@@]2(CCN3CC2CC2)[C@H]1O5)c1cccc2ccccc12 , its ED50 was 20.9

// sample COc1cc2ccccc2cc1C(=O)N[C@@H]1CC[C@@]2(O)[C@H]3Cc4ccc(O)c5c4[C@@]2(CCN3CC2CC2)[C@H]1O5 , its ED50 was 115.1

// sample O=C(N[C@@H]1CC[C@@]2(O)[C@H]3Cc4ccc(O)c5c4[C@@]2(CCN3CC2CC2)[C@H]1O5)c1ccc2cc(F)ccc2c1 , its ED50 was 81.1
